Sourced from ChEMBL document CHEMBL1145929

Parameter 'readout' = IC50; parameter 'system' = 5-hydroxytryptamine receptor 2A (Rattus norvegicus).
Sequence (P14842 whole entry): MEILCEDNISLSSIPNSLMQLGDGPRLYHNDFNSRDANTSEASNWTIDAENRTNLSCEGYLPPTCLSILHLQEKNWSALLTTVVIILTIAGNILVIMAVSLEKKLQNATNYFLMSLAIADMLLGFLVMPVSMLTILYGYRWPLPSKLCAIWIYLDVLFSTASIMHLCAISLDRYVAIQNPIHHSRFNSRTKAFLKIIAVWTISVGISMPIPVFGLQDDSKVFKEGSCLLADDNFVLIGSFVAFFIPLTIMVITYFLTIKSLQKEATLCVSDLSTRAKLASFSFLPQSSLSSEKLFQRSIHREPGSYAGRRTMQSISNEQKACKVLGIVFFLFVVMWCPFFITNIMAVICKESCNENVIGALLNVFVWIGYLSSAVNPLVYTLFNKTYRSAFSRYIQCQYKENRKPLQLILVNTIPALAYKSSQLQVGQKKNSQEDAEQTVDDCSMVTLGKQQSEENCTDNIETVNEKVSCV

Completed entries (count: 8):
In [3]: df
Out[3]:
                                   molecule  endpoint_value
0  Fc1cccc(OC(c2ccccc2)C2CCOCC2)c1 (stereo not given)          > 1 µM
1  c1ccc(OC(c2ccccc2)C2CCNCC2)cc1 (stereo not given)          > 1 µM
2  Fc1cccc(OC(c2ccccc2)C2CCNCC2)c1 (stereo in doubt; (+)-15j)          > 1 µM
3  Fc1ccccc1OC(c1ccccc1)C1CCNCC1 (single isomer, unassigned; (-))          > 1 µM
4  Oc1c(F)cccc1OC(c1ccccc1)C1CCNCC1 (stereo not given)          > 1 µM
5  Fc1cccc(OC(c2cccc(F)c2)C2CCNCC2)c1 (stereo in doubt; (-)-15u)          > 1 µM
6  Clc1cccc(OC(c2ccccc2)C2CCNCC2)c1 (stereo in doubt; (+)-15l)          > 1 µM
7  O=[N+]([O-])c1ccc(OC(c2ccccc2)C2CCNCC2)cc1 (single isomer, unassigned; (+))          > 1 µM

Looking for the measured IC50 of Fc1ccccc1OC(c1ccccc1)C1CCNCC1 (single isomer, unassigned; (+)) , can you help?
> 1 µM

Looking for the measured IC50 of OC1(c2ccc(Cl)cc2)c2ccccc2C2=NCCN21 (stereo not given) , can you help?
> 1 µM
